# Test system: NCI-H226 lung
# Procedure Details: NCI-60 one-dose screen, 48 h (100 = growth as untreated, 0 = no growth, -100 = all killed)
# Test Settings: 10 µM unless noted
This is part of a sample that, as a whole, favours compounds with a hit. Of some 83,000 tested, about 20% had one in any assay.
Assign a class from recorded growth; defined classes: c1 (below 30%), c2 (30% to below 80%), c3 (80% or more)

Solved cases below.
COc1ccc(-c2nc3sc(-c4ccc(Cl)cc4)cn3n2)cc1; c2
CCOc1ccc2nc(SCc3nc4n(n3)S(=O)(=O)c3ccccc3N4C)sc2c1; c2
COc1nc2ccccc2cc1-c1nc2c(cnn2-c2ccc(Br)cc2)c(=O)[nH]1; c2

Req: Kindly state the category for this compound: CCc1ccc(Oc2c(-c3ccc(OCc4ccc(Cl)cc4)cc3O)nn(C)c2C(F)(F)F)cc1
Resp: c1

Req: Kindly state the category for this compound: Cc1nc2ccccc2c(/C=C/c2ccccc2)c1C(=O)/C=C/c1ccc(C(F)(F)F)cc1
Resp: c1

Req: Kindly state the category for this compound: CC1(C)C2CC1C1(/C=N\Nc3ccccc3)C(C2)C(C#N)(C#N)C1(C#N)C#N (centres undefined)
Resp: c3

Req: Kindly state the category for this compound: COc1ccc(CNC(=O)C(=O)[C@H](Cc2ccccc2)NC(=O)c2[nH]c3ccccc3c(=O)c2C)cc1
Resp: c3

###

# Test system: HCT-15 colon
# Procedure Details: NCI-60 one-dose screen, 48 h
# Test Settings: 10 µM unless noted
Compounds without any hit were thinned out: in the full panel of roughly 83,000, 20% have a hit. Active and inactive are the calls of the source. How the source made its calls: active means growth percent below 10; inactive means the rest.
Choose one outcome from this list and give only that: active, inactive

Solved cases below.
O=C1/C(=C/c2ccccc2[N+](=O)[O-])Oc2ccc(O)c(O)c21; inactive
c1cc(NCCc2ccncc2)nc(-n2cnc3ccccc32)c1; inactive
O=C(Nc1c2ccccc2nc2ccccc12)c1ccccc1CN1C(=O)c2ccccc2C1=O; inactive
COc1ccc(-c2nc3sc(-c4ccccc4)cn3n2)cc1; inactive
O=c1cc(SCc2ccccc2)nc[nH]1; inactive
O=C(N/N=C/c1c(Cl)cccc1Cl)c1ccc(C(F)(F)F)nc1Nc1cccc(C(F)(F)F)c1; active
N#C/C(=C\c1ccc(F)cc1)n1nc2cccc(F)c2n1; inactive
O=C(N=c1oc2ccccc2cc1-c1cc2ccccc2[nH]1)Nc1ccc(Cl)cc1; inactive
O=C(CSc1nc2ccccc2[nH]1)Nc1cccc(Cl)c1; inactive
O=C(Nc1nc2ccc(F)cc2s1)c1cccnc1Nc1ccc(Cl)cc1Cl; inactive

API: the following record is the query input.
Req: Given COc1ccc(/C=C/c2c(C(=O)/C=C/c3ccc(C(F)(F)F)cc3)c(C)nc3ccccc23)cc1 , state the outcome it received in this test.
Resp: active

###

# System: HCT-116 colon
# Procedure Details: NCI-60 one-dose screen, 48 h (100 = growth as untreated, 0 = no growth, -100 = all killed)
# Test Settings: 10 µM unless noted
This is part of a sample that, as a whole, favours compounds with a hit. Of some 83,000 tested, about 20% had one in any assay.
Assign a class from recorded growth; defined classes: one: < 30%; two: ≥ 30% and < 80%; three: ≥ 80%

CCCCCCNC(=O)Oc1ccc(/C(=C(\C)c2ccc(OC)cc2)c2ccc(OCCN3CCCCC3)cc2)cc1; two
Cc1nc(/N=C(\N)NC(=O)Nc2cccc(Cl)c2)sc1C; two
O=C1/C(=C/c2ccc(F)cc2)Sc2c(Br)cccc21; three
C/C(=N/NC(N)=S)c1sc(Nc2cccc(Cl)c2)nc1C; two
COc1cc(OCc2cccc(-c3ccc(C(O)c4nccs4)cc3)c2C)cc(OC)c1CNCCNC(C)=O (stereo not given); three
CCOC(=O)c1c(C)nc2c(c1N)CC(=O)N2Cc1ccc(F)cc1; three
NS(=O)(=O)c1ccc(-n2nc(C(=O)N/N=C\c3ccc(F)cc3)cc2-c2ccc(Br)cc2)cc1; three
COc1cc(CCC[P+](c2ccccc2)(c2ccccc2)c2ccccc2)c(OC)c2c1OCO2; one
COc1nc2ccc(C)cc2cc1-c1nc2c(cnn2-c2ccc(Br)cc2)c(=O)[nH]1; one

API: the following record is the query input.
Req: Kindly state the category for this molecule: Cc1ccc(C(=O)N/N=C/c2cccc(Oc3ccccc3)c2)cn1
Resp: two
